- testedOn: FimH (Escherichia coli, UniProt Q1R2J4)
- Construct: performed with UTI89 bacteria and guinea pig red blood cells; endogenous in cells; host or cells: UTI89 bacteria (whole cells, type 1 piliated)
- Format: cell-based
- conditionDetails: concentration reducing bacterial agglutination of guinea pig red blood cells by greater than 90%; UTI89 bacteria
resultType: HAI titer EC>90 (µM)

Cc1cc(-c2ccc3onc(C)c3c2)ccc1[C@@H](O)[C@H]1O[C@H](CO)[C@@H](O)[C@H](O)[C@@H]1O [Example 20]
0.068
CNC(=O)c1cc(C(=O)NC)cc(-c2ccc([C@@H](O)[C@H]3O[C@H](CO)[C@@H](O)[C@H](O)[C@@H]3O)c(C)c2)c1 [Example 38]
0.007
Cc1cc(-c2ccnc(N3CCOCC3)c2)ccc1[C@@H](O)[C@H]1O[C@H](CO)[C@@H](O)[C@H](O)[C@@H]1O [Example 25]
0.006

* * *

- testedOn: FimH (Escherichia coli)
- Construct: performed with UTI89 bacteria and guinea pig red blood cells; endogenous in cells; host or cells: UTI89 bacteria (whole cells, type 1 piliated)
- Format: cell-based
- conditionDetails: concentration reducing bacterial agglutination of guinea pig red blood cells by greater than 90%; UTI89 bacteria
Outcome label depends on HAI titer EC>90 relative to 0.04 µM: at/above gives yes, below gives no.

Cc1cc(-c2ccc3nc[nH]c3c2)ccc1[C@@H](O)[C@H]1O[C@H](CO)[C@@H](O)[C@H](O)[C@@H]1O
no
Cc1cc(-c2ccc(C#N)cc2)ccc1[C@@H](O)[C@H]1O[C@H](CO)[C@@H](O)[C@H](O)[C@@H]1O
yes
Cc1cc(-c2ccc3c(c2)C(=O)N(C(C)C)CC3)ccc1[C@@H](O)[C@H]1O[C@H](CO)[C@@H](O)[C@H](O)[C@@H]1O
no
Cc1cc(N=[N+]=[N-])ccc1[C@@H](O)[C@H]1O[C@H](CO)[C@@H](O)[C@H](O)[C@@H]1O
yes
Cc1cc(-c2ccc3cccnc3c2)ccc1[C@@H](O)[C@H]1O[C@H](CO)[C@@H](O)[C@H](O)[C@@H]1O
no
O=C1NCCc2ccc(-c3ccc([C@@H](O)[C@H]4O[C@H](CO)[C@@H](O)[C@H](O)[C@@H]4O)c(C(F)(F)F)c3)cc21
no
Cc1cc(-c2cccc(C#N)c2)ccc1[C@@H](O)[C@H]1O[C@H](CO)[C@@H](O)[C@H](O)[C@@H]1O
no
CNC(=O)c1cccc(-c2ccc([C@@H](OC)[C@H]3O[C@H](CO)[C@@H](O)[C@H](O)[C@@H]3O)c(C)c2)c1
yes
CNc1cc(-c2ccc([C@@H](O)[C@H]3O[C@H](CO)[C@@H](O)[C@H](O)[C@@H]3O)c(C)c2)ccn1
no
CNC(=O)c1cccc(-c2ccc([C@@H](N=[N+]=[N-])[C@H]3O[C@H](CO)[C@@H](O)[C@H](O)[C@@H]3O)c(C)c2)c1
yes
Cc1cc(-c2cccc(C(=O)N(C)C)c2)ccc1[C@@H](O)[C@H]1O[C@H](CO)[C@@H](O)[C@H](O)[C@@H]1O
yes
Cc1cc(-c2cccc(C(=O)Nc3ccccn3)c2)ccc1[C@@H](O)[C@H]1O[C@H](CO)[C@@H](O)[C@H](O)[C@@H]1O
no
Cc1cc(-c2ccc3ncccc3c2)ccc1[C@@H](O)[C@H]1O[C@H](CO)[C@@H](O)[C@H](O)[C@@H]1O
no

Cited source for all entries: patent US20200002303A1
